For each of the binders below, state its IC50 (mut)/IC50 (wt).
tgt: T1, VEGF (human, UniProt P15692-4 27-191, limits assumed)
T1 construct: Biotinylated in the KDR-IgG ELISA, amine-coupled to the chip in BIAcore; also called biotinylated VEGF; vascular endothelial growth factor
test details: competitive phage-ELISA, relative to pY0192
Record the value in ratio, omitting the unit from your answer.

Inquiry: Which IC50 (mut)/IC50 (wt) reading was recorded for the binder pY0192 VH S105A (Fab, V domains shown, Ala-scan variant of pY0192; Fab on phage) VH: EVQLVESGGGLVQPGGSLRLSCAASGYTFTNYGINWVRQAPGKGLEWVGWINTYTGEPTYAADFKRRFTFSLDTSKSTAYLQMNSLRAEDTAVYYCAKYPHYYGASHWYFDVWGQGTL VL: DIQLTQSPSSLSASVGDRVTITCRANEQLSNYLNWYQQKPGKAPKVLIYFTSSLHSGVPSRFSGSGSGTDFTLTISSLQPEDFATYYCQQYSTVPWTFGQGTKVEIKR ?
Reply text: 1

Inquiry: Here is the next binder: pY0192 VH Y109A (Fab, V domains shown, Ala-scan variant of pY0192; Fab on phage) VH: EVQLVESGGGLVQPGGSLRLSCAASGYTFTNYGINWVRQAPGKGLEWVGWINTYTGEPTYAADFKRRFTFSLDTSKSTAYLQMNSLRAEDTAVYYCAKYPHYYGSSHWAFDVWGQGTL VL: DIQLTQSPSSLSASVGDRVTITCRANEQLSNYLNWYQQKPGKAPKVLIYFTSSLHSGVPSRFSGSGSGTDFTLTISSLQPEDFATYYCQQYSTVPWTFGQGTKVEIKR
Reply text: 19

Inquiry: Here is the next binder: pY0192 VH Y103A (Fab, V domains shown, Ala-scan variant of pY0192; Fab on phage) VH: EVQLVESGGGLVQPGGSLRLSCAASGYTFTNYGINWVRQAPGKGLEWVGWINTYTGEPTYAADFKRRFTFSLDTSKSTAYLQMNSLRAEDTAVYYCAKYPHYAGSSHWYFDVWGQGTL VL: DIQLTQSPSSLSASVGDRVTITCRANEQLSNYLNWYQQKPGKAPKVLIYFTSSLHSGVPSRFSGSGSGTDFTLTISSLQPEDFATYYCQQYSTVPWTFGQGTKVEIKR
Reply text: 5

Inquiry: Here is the next binder: pY0192 VL Q89A (Fab, V domains shown, Ala-scan variant of pY0192; Fab on phage) VH: EVQLVESGGGLVQPGGSLRLSCAASGYTFTNYGINWVRQAPGKGLEWVGWINTYTGEPTYAADFKRRFTFSLDTSKSTAYLQMNSLRAEDTAVYYCAKYPHYYGSSHWYFDVWGQGTL VL: DIQLTQSPSSLSASVGDRVTITCRANEQLSNYLNWYQQKPGKAPKVLIYFTSSLHSGVPSRFSGSGSGTDFTLTISSLQPEDFATYYCAQYSTVPWTFGQGTKVEIKR
Reply text: 4

Inquiry: Here is the next binder: pY0192 VH T53A (Fab, V domains shown, Ala-scan variant of pY0192; Fab on phage) VH: EVQLVESGGGLVQPGGSLRLSCAASGYTFTNYGINWVRQAPGKGLEWVGWINAYTGEPTYAADFKRRFTFSLDTSKSTAYLQMNSLRAEDTAVYYCAKYPHYYGSSHWYFDVWGQGTL VL: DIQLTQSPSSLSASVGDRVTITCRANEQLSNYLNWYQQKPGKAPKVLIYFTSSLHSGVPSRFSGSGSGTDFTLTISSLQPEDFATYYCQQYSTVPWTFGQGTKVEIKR
Reply text: 9

Inquiry: Here is the next binder: pY0192 VH D63A (Fab, V domains shown, Ala-scan variant of pY0192; Fab on phage) VH: EVQLVESGGGLVQPGGSLRLSCAASGYTFTNYGINWVRQAPGKGLEWVGWINTYTGEPTYAAAFKRRFTFSLDTSKSTAYLQMNSLRAEDTAVYYCAKYPHYYGSSHWYFDVWGQGTL VL: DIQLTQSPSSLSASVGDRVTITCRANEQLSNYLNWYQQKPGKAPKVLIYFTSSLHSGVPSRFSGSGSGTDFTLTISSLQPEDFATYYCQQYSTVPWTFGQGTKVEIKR
Reply text: 1

Inquiry: Here is the next binder: pY0192 VL S92A (Fab, V domains shown, Ala-scan variant of pY0192; Fab on phage) VH: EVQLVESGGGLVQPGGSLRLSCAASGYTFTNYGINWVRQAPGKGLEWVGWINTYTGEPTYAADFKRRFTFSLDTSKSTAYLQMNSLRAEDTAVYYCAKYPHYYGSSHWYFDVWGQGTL VL: DIQLTQSPSSLSASVGDRVTITCRANEQLSNYLNWYQQKPGKAPKVLIYFTSSLHSGVPSRFSGSGSGTDFTLTISSLQPEDFATYYCQQYATVPWTFGQGTKVEIKR
Reply text: 1

Inquiry: Here is the next binder: pY0192 VH Y54A (Fab, V domains shown, Ala-scan variant of pY0192; Fab on phage) VH: EVQLVESGGGLVQPGGSLRLSCAASGYTFTNYGINWVRQAPGKGLEWVGWINTATGEPTYAADFKRRFTFSLDTSKSTAYLQMNSLRAEDTAVYYCAKYPHYYGSSHWYFDVWGQGTL VL: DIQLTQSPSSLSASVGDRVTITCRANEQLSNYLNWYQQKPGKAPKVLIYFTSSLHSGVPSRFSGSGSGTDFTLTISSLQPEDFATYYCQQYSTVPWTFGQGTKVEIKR
Reply text: 9

Reference source: patent US20050112126A1
